# System: Putamen
# assay: Drug uptake in anesthetized cynomolgus monkey brain putamen after 3.5 mins postinjection
# Format: ADME, organism-based, Macaca fascicularis
# setup.conditions: in vivo
# binarize Drug uptake: threshold 1 inclusive, high side True, low side False

Below, 3 compounds whose answers are already recorded.
[
  {
    "compound": "O=C(OCC[18F])C1C2CCC(CC1c1ccc(/C=C\\I)cc1)N2 (stereo not given)",
    "target": "Putamen",
    "discrete.label": "False"
  },
  {
    "compound": "O=C(OCC[18F])C1C2CCC(CC1c1cccc(/C=C\\I)c1)N2 (stereo not given)",
    "target": "Putamen",
    "discrete.label": "False"
  },
  {
    "compound": "O=C(OCCC[18F])C1C2CCC(CC1c1cccc(/C=C\\Br)c1)N2 (stereo not given)",
    "target": "Putamen",
    "discrete.label": "True"
  }
]

# bool: Drug uptake of O=C(OCCC[18F])C1C2CCC(CC1c1cccc(/C=C\I)c1)N2 (stereo not given) >= 1
True

* * *

# Test system: Putamen
# assay: Drug uptake in anesthetized cynomolgus monkey brain putamen after 6.5 mins postinjection
# Type: ADME, organism-based, Macaca fascicularis
# Parameters: unit not given here
# setup.conditions: in vivo
readout.name: Drug uptake

Entry O=C(OCCC[18F])C1C2CCC(CC1c1cccc(/C=C\Br)c1)N2 (stereo not given) : reported Drug uptake = ?
4.42

Entry O=C(OCC[18F])C1C2CCC(CC1c1ccc(/C=C\I)cc1)N2 (stereo not given) : reported Drug uptake = ?
1.89

Entry O=C(OCC[18F])C1C2CCC(CC1c1cccc(/C=C\Br)c1)N2 (stereo not given) : reported Drug uptake = ?
3.01

Entry O=C(OCCC[18F])C1C2CCC(CC1c1cccc(/C=C\I)c1)N2 (stereo not given) : reported Drug uptake = ?
3.28

Entry O=C(OCC[18F])C1C2CCC(CC1c1cccc(/C=C\I)c1)N2 (stereo not given) : reported Drug uptake = ?
2.54

* * *

# assay: Drug uptake in anesthetized cynomolgus monkey brain cerebellum after 65 mins postinjection
# Assay type: ADME, organism-based, Macaca fascicularis
# setup.conditions: in vivo
# binarize Drug uptake: threshold 3 inclusive, high side fulfilled, low side not fulfilled

[
  {
    "compound": "O=C(OCCC[18F])C1C2CCC(CC1c1cccc(/C=C\\I)c1)N2 (stereo not given)",
    "discrete.label": "fulfilled"
  },
  {
    "compound": "O=C(OCC[18F])C1C2CCC(CC1c1cccc(/C=C\\I)c1)N2 (stereo not given)",
    "discrete.label": "fulfilled"
  },
  {
    "compound": "O=C(OCC[18F])C1C2CCC(CC1c1ccc(/C=C\\I)cc1)N2 (stereo not given)",
    "discrete.label": "not fulfilled"
  },
  {
    "compound": "O=C(OCCC[18F])C1C2CCC(CC1c1cccc(/C=C\\Br)c1)N2 (stereo not given)",
    "discrete.label": "fulfilled"
  }
]

# bool: Drug uptake of O=C(OCC[18F])C1C2CCC(CC1c1cccc(/C=C\Br)c1)N2 (stereo not given) >= 3
fulfilled

* * *

# Test system: Medulla
# assay: Drug uptake in anesthetized cynomolgus monkey brain medulla after 135 mins postinjection
# Assay type: ADME, organism-based, Macaca fascicularis
# setup.conditions: in vivo, 2.25 h
# reported Drug uptake; entries follow
Form rule: numeric answer, no unit written next to it.

Worked cases, answers included:
[
  {
    "compound": "O=C(OCCC[18F])C1C2CCC(CC1c1cccc(/C=C\\Br)c1)N2 (stereo not given)",
    "Drug uptake": 4.99
  },
  {
    "compound": "O=C(OCC[18F])C1C2CCC(CC1c1ccc(/C=C\\I)cc1)N2 (stereo not given)",
    "Drug uptake": 3.69
  },
  {
    "compound": "O=C(OCC[18F])C1C2CCC(CC1c1cccc(/C=C\\I)c1)N2 (stereo not given)",
    "Drug uptake": 3.24
  },
  {
    "compound": "O=C(OCC[18F])C1C2CCC(CC1c1cccc(/C=C\\Br)c1)N2 (stereo not given)",
    "Drug uptake": 4.21
  }
]

Let's switch to this compound now.
Entry O=C(OCCC[18F])C1C2CCC(CC1c1cccc(/C=C\I)c1)N2 (stereo not given) : reported Drug uptake = ?
4.5

* * *

# Test system: Caudate
# assay: Drug uptake in anesthetized cynomolgus monkey brain caudate after 105 mins postinjection
# Format: ADME, organism-based, Macaca fascicularis, Caudate nucleus
# setup.conditions: in vivo, 1.75 h
readout.name: Drug uptake
Form rule: numeric answer, no unit written next to it.

Worked cases, answers included:
[
  {
    "molecule": "O=C(OCC[18F])C1C2CCC(CC1c1cccc(/C=C\\I)c1)N2 (stereo not given)",
    "Drug uptake": 3.33
  },
  {
    "molecule": "O=C(OCC[18F])C1C2CCC(CC1c1cccc(/C=C\\Br)c1)N2 (stereo not given)",
    "Drug uptake": 4.01
  },
  {
    "molecule": "O=C(OCCC[18F])C1C2CCC(CC1c1cccc(/C=C\\Br)c1)N2 (stereo not given)",
    "Drug uptake": 4.9
  },
  {
    "molecule": "O=C(OCC[18F])C1C2CCC(CC1c1ccc(/C=C\\I)cc1)N2 (stereo not given)",
    "Drug uptake": 3.13
  }
]

Entry O=C(OCCC[18F])C1C2CCC(CC1c1cccc(/C=C\I)c1)N2 (stereo not given) : reported Drug uptake = ?
3.7

* * *

# reported Drug uptake; entries follow
# System: Midbrain
# assay: Drug uptake in anesthetized cynomolgus monkey brain midbrain after 27.5 mins postinjection
# Type: ADME, organism-based, Macaca fascicularis
# Parameters: unit not given here
# setup.conditions: in vivo
Form rule: numeric answer, no unit written next to it.

Worked cases, answers included:
[
  {
    "compound": "O=C(OCC[18F])C1C2CCC(CC1c1cccc(/C=C\\I)c1)N2 (stereo not given)",
    "target": "Midbrain",
    "Drug uptake": 4.71
  },
  {
    "compound": "O=C(OCC[18F])C1C2CCC(CC1c1ccc(/C=C\\I)cc1)N2 (stereo not given)",
    "target": "Midbrain",
    "Drug uptake": 3.19
  },
  {
    "compound": "O=C(OCCC[18F])C1C2CCC(CC1c1cccc(/C=C\\I)c1)N2 (stereo not given)",
    "target": "Midbrain",
    "Drug uptake": 5.04
  },
  {
    "compound": "O=C(OCCC[18F])C1C2CCC(CC1c1cccc(/C=C\\Br)c1)N2 (stereo not given)",
    "target": "Midbrain",
    "Drug uptake": 6.06
  }
]

Let's switch to this compound now.
Please state recorded Drug uptake (tested on Midbrain) of O=C(OCC[18F])C1C2CCC(CC1c1cccc(/C=C\Br)c1)N2 (stereo not given)
4.53

* * *

# reported Drug uptake; entries follow
# assay: Drug uptake in anesthetized cynomolgus monkey brain frontal lobe after 45 mins postinjection
# Format: ADME, organism-based, Macaca fascicularis
# setup.conditions: in vivo, 0.75 h
Form rule: numeric answer, no unit written next to it.

Worked cases, answers included:
[
  {
    "compound": "O=C(OCC[18F])C1C2CCC(CC1c1cccc(/C=C\\Br)c1)N2 (stereo not given)",
    "readout.name": "Drug uptake",
    "experimental.value": 2.85
  },
  {
    "compound": "O=C(OCC[18F])C1C2CCC(CC1c1cccc(/C=C\\I)c1)N2 (stereo not given)",
    "readout.name": "Drug uptake",
    "experimental.value": 2.95
  },
  {
    "compound": "O=C(OCCC[18F])C1C2CCC(CC1c1cccc(/C=C\\Br)c1)N2 (stereo not given)",
    "readout.name": "Drug uptake",
    "experimental.value": 3.72
  },
  {
    "compound": "O=C(OCC[18F])C1C2CCC(CC1c1ccc(/C=C\\I)cc1)N2 (stereo not given)",
    "readout.name": "Drug uptake",
    "experimental.value": 1.95
  }
]

Let's switch to this compound now.
Entry O=C(OCCC[18F])C1C2CCC(CC1c1cccc(/C=C\I)c1)N2 (stereo not given) : reported Drug uptake = ?
2.84

* * *

# reported Drug uptake; entries follow
# System: Pons
# assay: Drug uptake in anesthetized cynomolgus monkey brain pons after 1.5 mins postinjection
# Assay type: ADME, organism-based, Macaca fascicularis
# setup.conditions: in vivo, 0.025 h
Form rule: numeric answer, no unit written next to it.

[
  {
    "molecule": "O=C(OCCC[18F])C1C2CCC(CC1c1cccc(/C=C\\I)c1)N2 (stereo not given)",
    "Drug uptake": 0.21
  },
  {
    "molecule": "O=C(OCC[18F])C1C2CCC(CC1c1cccc(/C=C\\Br)c1)N2 (stereo not given)",
    "Drug uptake": 0.09
  },
  {
    "molecule": "O=C(OCC[18F])C1C2CCC(CC1c1cccc(/C=C\\I)c1)N2 (stereo not given)",
    "Drug uptake": 0.09
  },
  {
    "molecule": "O=C(OCCC[18F])C1C2CCC(CC1c1cccc(/C=C\\Br)c1)N2 (stereo not given)",
    "Drug uptake": 0.38
  }
]

Let's switch to this molecule now.
Entry O=C(OCC[18F])C1C2CCC(CC1c1ccc(/C=C\I)cc1)N2 (stereo not given) : reported Drug uptake = ?
0.06
